Give growth for every item shown.
# Test system: SN12C renal
# methodSummary: NCI-60 one-dose screen, 48 h (100 = growth as untreated, 0 = no growth, -100 = all killed)
# condition: 10 µM unless noted
The panel holds about 83,000 compounds, 20% with a hit somewhere; the sample as a whole holds those more often. Calls of active or inactive are those of the source. The calls were made as follows: active = growth percent below 10; inactive = the rest.

Bench note: what growth did CC(O)c1cc[cH-]c1.[Fe+2].c1cc[cH-]c1 (configuration not stated) show?
98.9% (inactive)

Bench note: what growth did O=C1c2ccccc2CCc2ccccc21 show?
96.7% (inactive)

Bench note: what growth did COc1cc(-c2nn(-c3ccc(NC(=O)c4cc(Cl)cc(Cl)c4)cc3)cc2-c2ccncc2)ccc1Cl show?
91.9% (inactive)

Bench note: what growth did COC1=CC(c2ccc[nH]2)=N/C1=C\c1[nH]c(C)c(C(=O)CCCCC(=O)NC(C)(C)C)c1C show?
55.3% (inactive)

Bench note: what growth did CC(=O)Oc1cc2ccccc2cc1C(C)C show?
111% (inactive)

Bench note: what growth did O=C(NCCCl)Nc1nccnc1OCc1ccc(F)cc1 show?
94.1% (inactive)

Bench note: what growth did CCCC(=O)Nc1ccccc1C(=O)O show?
109% (inactive)

Bench note: what growth did Oc1ccccc1\C=N/N=C/C=C/c1ccccc1 show?
88% (inactive)

Bench note: what growth did CC([C@H]1CC=C2C3CCC4=C[C@@H](N(C)C)CC[C@]4(C)C3CC[C@@]21C)N(C)C (some centres not stated) show?
21.5% (inactive)

Bench note: what growth did O=C1CSC(c2ccccc2Cl)N1c1nnc(-c2ccncc2)o1 (configuration not stated) show?
98.3% (inactive)

Bench note: what growth did CCC(CCCN1C(=O)c2ccccc2C1=O)Nc1cc(OC)cc2cccnc12 (configuration not stated) show?
99.3% (inactive)

Bench note: what growth did O=C(NCCNCCO)c1cc([N+](=O)[O-])cc([N+](=O)[O-])c1O show?
96.1% (inactive)

Bench note: what growth did CCCCCCCCCCCCCCCCC(=O)O.CCCCCCCCCCCCCCCCCC(=O)O.CCCCCCCCCCCCCCCCCC(=O)O.CCCCCCCCCCCCCCCCCC(=O)O.CCCCCCCCCCCCCCCCCC(=O)O.CO[CH-]OC12COC1CC(O)C1(C)C(O)C(OC(C)O)C3=C(C)C(OC(=O)C(O)C([NH-])c4ccccc4)CC(O)(C(OC(=O)c4ccccc4)C21)C3(C)C.[Cu+].[Zn].[Zn].[Zn].[Zn].[Zn] (configuration not stated) show?
29.9% (inactive)

Bench note: what growth did O=C(CN1CCN(c2cccc(Cl)c2)CC1)N1CCN(c2nnc(-c3ccc(Cl)cc3)c(-c3ccc(Cl)cc3)n2)CC1 show?
75.7% (inactive)

Bench note: what growth did CCOC(=O)C1=C(C(F)(F)F)NC(=S)NC1CN1C(=O)c2ccccc2C1=O (configuration not stated) show?
105% (inactive)

Bench note: what growth did COc1ccc(Nc2c3ccccc3nc3ccccc23)cc1 show?
30.1% (inactive)

Bench note: what growth did CCCNC(=O)Oc1ccc(/C(=C(/CC)Cc2ccccc2)c2ccc(OCCN(CC)CC)cc2)cc1 show?
78.6% (inactive)

Bench note: what growth did CC(C)(C)c1ccc([I+]c2ccc(C(C)(C)C)cc2)cc1 show?
3.97% (active)

Bench note: what growth did CCOc1ccccc1/C=N\N=C(N/N=C/c1ccccc1OCC)N/N=C/c1ccccc1OCC show?
15.4% (inactive)

Bench note: what growth did COc1ccc2c(c1)/C(=C1/S/C(=N/c3nnc(C)s3)NC1=O)C(=O)N2Cc1ccc(Br)cc1 show?
43.4% (inactive)

Bench note: what growth did COC(=O)c1cc(Nc2ccc(O)c3c2C(=O)c2c([N+](=O)[O-])ccc(O)c2C3=O)cc(C(=O)OC)c1 show?
70.5% (inactive)

Bench note: what growth did COc1ccc(-c2nnc(SCC(=O)Nc3ccc(C(=O)/C=C/c4cc(OC)c(OC)c(OC)c4)cc3)n2-c2ccccc2)cc1OC show?
31.8% [100 µM] (inactive)

----------
# Tested on: 786-0 renal
# methodSummary: NCI-60 one-dose screen, 48 h (100 = growth as untreated, 0 = no growth, -100 = all killed)
# condition: 10 µM unless noted
The panel holds about 83,000 compounds, 20% with a hit somewhere; the sample as a whole holds those more often.
endpointName: growth (%)
Please reply with the bare figure in % and do not write the unit itself.

Field: growth (786-0 renal). Entry: CCCNC(=O)Oc1ccc(/C(=C(/CC)Cc2ccccc2)c2ccc(OCCN(CC)CC)cc2)cc1
80.7

Field: growth (786-0 renal). Entry: CC(=O)c1ccc2c(c1)c1ccccc1n2C
96.6

Field: growth (786-0 renal). Entry: Cc1c([C@H](C(Cl)Cl)[C@H](O)[C@H]2C[C@H](C)C(=O)O2)ccc2c1C(=O)[C@H]1[C@H]2C[C@@H](Br)[C@@]23O[C@@H](CO[C@H]2O)CC13C (some centres undefined)
40.1

Field: growth (786-0 renal). Entry: CCCCCCNC(=O)Oc1ccc(/C(=C(/C)Cc2ccc(OC)cc2)c2ccc(OCCN(C)C)cc2)cc1
59.4

Field: growth (786-0 renal). Entry: N=C(c1ccccc1)N(Cc1ccccc1)Cc1ccccc1
86.5

Field: growth (786-0 renal). Entry: N=C(N)c1ccc(-c2ccc(-c3ccc(Cl)cc3)s2)s1
-62.6

Field: growth (786-0 renal). Entry: C[C@]12CC[C@H]3[C@@H](CC[C@H]4C[C@@H](O)CC[C@@]43C)[C@@H]1CC(=O)C2
107

Field: growth (786-0 renal). Entry: COc1cc(-c2nn(-c3ccc(NC(=O)Nc4cc(C(F)(F)F)cc(C(F)(F)F)c4)cc3)cc2-c2ccncc2)ccc1Cl
-41.4

Field: growth (786-0 renal). Entry: CCC(C)(C)c1ccc(OCCCCCCN2CCNCC2)cc1
59.5

----------
# Tested on: U251 CNS
# methodSummary: NCI-60 one-dose screen, 48 h
# condition: 10 µM unless noted
This is part of a sample that, as a whole, favours compounds with a hit. Of some 83,000 tested, about 20% had one in any assay. Calls of active or inactive are those of the source. Rule for the calls: active = growth percent below 10; inactive = the rest.
Your reply should match one of these outcome classes. active, inactive

GET /call?item= COc1ccc2c(N)ncc(C#Cc3cc(C(=O)Nc4ccc(CN5CCN(C)CC5)c(C(F)(F)F)c4)cnc3C)c2c1 returns the recorded outcome of this test.
active

GET /call?item= CCOC(=O)c1sc(NS(=O)(=O)c2ccccc2)nc1C returns the recorded outcome of this test.
inactive

GET /call?item= O=S(=O)(O)c1ccc2c(c1)Sc1cc(S(=O)(=O)O)ccc1O2 returns the recorded outcome of this test.
inactive

GET /call?item= CCCCCCCCCCCCCCCCC(=O)O.CCCCCCCCCCCCCCCCCC(=O)O.CCCCCCCCCCCCCCCCCC(=O)O.CCCCCCCCCCCCCCCCCC(=O)O.CCCCCCCCCCCCCCCCCC(=O)O.CO[CH-]OC12COC1CC(O)C1(C)C(O)C(OC(C)O)C3=C(C)C(OC(=O)C(O)C([NH-])c4ccccc4)CC(O)(C(OC(=O)c4ccccc4)C21)C3(C)C.[Cu+].[Zn].[Zn].[Zn].[Zn].[Zn] (stereo not drawn) returns the recorded outcome of this test.
inactive

GET /call?item= CC(=O)Nc1ccc(CC#N)cc1Br returns the recorded outcome of this test.
inactive

GET /call?item= Cc1ccc(CC(=O)O)c(C)c1 returns the recorded outcome of this test.
inactive

GET /call?item= COc1ccc(C(O)(c2ccccc2)C(C(=O)O)c2ccccc2)cc1 (stereo not drawn) returns the recorded outcome of this test.
inactive

GET /call?item= COc1cc(CNC(=O)CCCC/C=C/C(C)C)ccc1OCc1nnc(Nc2ccccc2F)o1 returns the recorded outcome of this test.
inactive

----------
# System: NCI-H226 lung
# methodSummary: NCI-60 one-dose screen, 48 h (100 = growth as untreated, 0 = no growth, -100 = all killed)
# condition: 10 µM unless noted
The panel holds about 83,000 compounds, 20% with a hit somewhere; the sample as a whole holds those more often.
Give growth for every item shown.
Please reply with the bare figure in % and do not write the unit itself.

Bench note: what growth did CC[C@H](Nc1ncnc2nc[nH]c12)c1nc2cccc(NCc3ccc(C(=O)NO)nc3)c2c(=O)n1-c1ccccc1 show?
66.7

Bench note: what growth did COc1cccc2c1nc1cccc(OC)c1[n+]2[O-] show?
71.2

Bench note: what growth did CCCC(CCC)Oc1ccc(CCCC2=C(O)c3ccccc3C(=O)C2=O)cc1 show?
32.6

Bench note: what growth did CCCCCCCCCCCCCCCCCCOP(=O)(O)O show?
98.8

Bench note: what growth did O=C(N/N=C/c1coc2ccccc2c1=O)c1cc2oc(-c3ccccc3)cc2[nH]1 show?
114

Bench note: what growth did CC(C)C(=O)c1ccc(Cl)s1 show?
93.2

Bench note: what growth did COc1ccc(/C=C/C(=O)/C=C/c2cc3ccccc3[nH]c2=O)cc1 show?
90.9

Bench note: what growth did CCCCCC(=C/c1ccccc1)/C=N/N=C(N)N show?
66

Bench note: what growth did O=C(N/N=C\c1ccc(Cl)cc1)C(=O)N/N=C\c1ccc(Cl)cc1 show?
110

Bench note: what growth did Cc1cc2cn3c4ccc(O)cc4[nH]c(=O)c3c2cc1C show?
54.3

Bench note: what growth did CC(C)(C)OC(=O)N1C/C(=C\c2ccccc2)C(=O)/C(=C/c2ccccc2)C1 show?
81.6

Bench note: what growth did COc1ccc2c(N)ncc(C#Cc3cc(C(=O)Nc4ccc(CN5CCN(C)CC5)c(C(F)(F)F)c4)cnc3C)c2c1 show?
55

Bench note: what growth did CCCCCCCCCCCCCCCCCC1=NCCN1CCNC(C)=O show?
100

Bench note: what growth did O=C(Nc1ccc(-n2cc(-c3ccncc3)c(-c3ccc(Cl)c(O)c3)n2)cc1)c1cc(C(F)(F)F)cc(C(F)(F)F)c1 show?
94.3

Bench note: what growth did COc1ccc(CNCCCN2C(=O)c3ccc4c5c(ccc(c35)C2=O)C(=O)N(CCCNCc2ccc(OC)c(OC)c2OC)C4=O)c(OC)c1OC show?
-64.7

Bench note: what growth did COc1cc(-c2nn(-c3ccc(NC(=O)Nc4ccc(Cl)c(C(F)(F)F)c4)cc3)cc2-c2ccncc2)ccc1Cl show?
17.9

Bench note: what growth did CC(=O)N1N=C(c2ccc(Cl)cc2)CC1c1cn(-c2ccccc2)nc1-c1ccc([N+](=O)[O-])cc1 (centres undefined) show?
93.6

Bench note: what growth did C/C=C/C/C=C/[C@H](C)C[C@H](O)[C@@H]1C[C@@H]2O[C@H]2/C=C/[C@H](O)[C@@H](O)/C=C/C[C@H](C)CC(=O)O1 show?
87

Bench note: what growth did COc1ccc2sc(-n3nc4nc5n(c(=O)c4c3N)-c3ccccc3Sc3ccccc3-5)nc2c1 show?
81.4

The reported measurements were obtained from PubChem BioAssay (NCI).
